# Target Under Test: GST-RAMANK1-CSL complex (human) (UniProt P46531)
# Protocol Details: ALPHAscreen NTC competition: peptide titrated against Bio-sdnMAML1 binding to GST-RAMANK1-CSL; IC50 with 95% CI
pIC50: −log10 of the molar value. Bridge positions count the residues as written; N and C are the ends. Square brackets hold non-standard residues; d marks the D form. Ends that are not written are not given here. dPhe(F5) = N[C@H](Cc1c(F)c(F)c(F)c(F)c1F)C(=O)O; 1Nal = N[C@@H](Cc1cccc2ccccc12)C(=O)O; S5 = C=CCCC[C@](C)(N)C(=O)O; βAla = NCCC(=O)O
Parameter Measured: pIC50

Solved cases (4 shown):
Binder	Parameter Measured	Reported Result
Ac-W[βAla]ERWRRRL[S5]WCR[S5]HHSTCEARYEAVSPERL (staple 10-14; cysteine pairing not given here) [SAHM1-81]	pIC50	6.43
Ac-W[βAla]ERWRRRI[S5]LFR[S5]HHSTCEARY (staple 10-14) [SAHM1-25 (E21-Y41 scaffold, L23W/C30F double mutant)]	pIC50	6.54
Ac-W[βAla]ERWRRRL[S5]YCR[S5]HHSTCEARY (staple 10-14; cysteine pairing not given here) [SAHM1-59]	pIC50	6.47
Ac-W[βAla]ERWRRRI[S5]YFR[S5]HHST[dPhe(F5)]EAR[1Nal] (staple 10-14) [SAHM1-62 (E21-Y41 scaffold with L23W, L29Y, C30F, C37 D-pentafluoro-Phe and Y41 1-naphthylalanine)]	pIC50	6.49

[a] Ac-W[βAla]ERLRRRI[S5]LCR[S5]HHSTFEARY (staple 10-14) [SAHM1-28]
[b] Ac-W[βAla]ERWRRRL[S5]YCR[S5]HHSTCEARYEAVSPERL (staple 10-14; cysteine pairing not given here) [SAHM1-76]
Q) Between the entries labeled a and b , whose measured pIC50 is lower? Lab note: record the label of whichever item you select.
A) a
